- Protocol: soluble fraction after stress (log2 fold change); higher = more stays soluble; pooled small domains, quantitative proteomics;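 note: 20 min heating vs room temperature control held 20 min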
- Condition Details: stress: 75 degC
Assay Readout: soluble fraction (log2)

Lab book: soluble fraction (log2) of HMIKLSTNENTALRLVMERGLVTESELKGLFDNPVAVMESLISKMIETNTHWIHSERSENGEWVYAWQ noted as -2.01

Lab book: soluble fraction (log2) of HMRLADHVVEKLLALVQERGLQPGQKLPAERQLAEVLGVSRTSVREAIQKLVSQGVLSARRGDGTYVQS noted as -0.302

Lab book: soluble fraction (log2) of HMKYGPSTVAVLTVVRESEMGAFLDAETGRTNDDILLHKTQQTEPVHIGDQVKVFLYLDPKHRLTASMRVP noted as -1.03

Lab book: soluble fraction (log2) of HMRKEDYLPIGSVINMDDRKFRVDSVDFDKDKVSLQDMALADARMPIFWEEPLTVVRELYEQQDE noted as 0.135

Lab book: soluble fraction (log2) of HMDPEQLKIAINTKMPFGKYSGRPLLLLPEPYLVWFKQQGFPDSKLGSQLAMMYEVKLNGLEQMLMPLL noted as -0.665

Lab book: soluble fraction (log2) of HMVAPKDIVMPSFVGKKYTDVVNTPNSSYTFEFKKDEKNSSDYAVGFIMDQKPKAGETVKSNATVTLIVSK noted as 0.0603

Lab book: soluble fraction (log2) of HMAKITERVMGSAALRDYDPNYLPDEVLKALDGYPPFDGYVYKDGILYARVKIGDTFFIIPPI noted as -2.53

Lab book: soluble fraction (log2) of HMGVISRVITFWQNGFTVDDGPLRAFDDPANMAFMESIGRGEAPAELAPKTRTQRVNINLVQRHEPYSAPK noted as -0.147
